src = ChEMBL document CHEMBL1159176

Entries and their Ki values follow.
- SYSTEM UNDER TEST: UniProtKB P61169
- Sequence (P61169 whole entry): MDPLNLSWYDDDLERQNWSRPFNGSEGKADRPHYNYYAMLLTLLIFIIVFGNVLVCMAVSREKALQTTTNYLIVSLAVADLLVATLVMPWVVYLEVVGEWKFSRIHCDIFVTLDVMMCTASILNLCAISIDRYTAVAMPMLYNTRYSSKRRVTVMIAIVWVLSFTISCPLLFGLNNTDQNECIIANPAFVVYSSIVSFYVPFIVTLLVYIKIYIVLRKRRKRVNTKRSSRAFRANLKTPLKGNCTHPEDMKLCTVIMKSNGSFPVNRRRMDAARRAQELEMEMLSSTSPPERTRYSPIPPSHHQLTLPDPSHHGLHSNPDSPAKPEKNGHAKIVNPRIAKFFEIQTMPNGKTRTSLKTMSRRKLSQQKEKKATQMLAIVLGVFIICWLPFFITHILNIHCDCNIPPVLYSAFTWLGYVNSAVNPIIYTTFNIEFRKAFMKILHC
- ASSAY NOTES: Binding affinity against [3H]U-86170 binding to Dopamine receptor D2 expressed in CHO-K1 cells
- Type: cell-based
API: value field is a number in nM; no unit string.

Consider the following illustrative entries.
COMPOUND	ENDPOINT VALUE
CCCN1CCC(c2ccccc2)C1 (configuration not stated)	625
CCCN1CCC(c2cccc3ccccc23)C1 (configuration not stated)	71
CCCN1CCC(c2cccc(OS(=O)(=O)C(F)(F)F)c2)C1 (configuration not stated)	162
FC(F)(F)c1cccc(C2CCNC2)c1 (configuration not stated)	100
CCCN1CCC(c2cccc(O)c2)C1 (configuration not stated)	68
CCCN1CCC(c2cccc(C(F)(F)F)c2)C1 (configuration not stated)	151

Now consider a different compound.
Enquiry: Would you mind telling me what Ki value was observed for c1ccc2c(C3CCNC3)cccc2c1 (configuration not stated) ?
Return: 264
